These data points were gathered from the supplement of paper PMC8728848.

# target_or_system: Fuc(a1-2)[GalNAc(a1-3)]Gal(b1-4)GlcNAc(b1-3)Gal(b1-4)GlcNAc
# method: glycan array binding signal (z-score within array); higher = stronger binding
# test_parameters: glycan notation: IUPAC condensed, linker removed
The entries come from a sample that favours the strongest signals as a whole.
readout: glycan array binding signal (z-score)

binder	result
RBMC2 (Vibrio cholerae) (protein) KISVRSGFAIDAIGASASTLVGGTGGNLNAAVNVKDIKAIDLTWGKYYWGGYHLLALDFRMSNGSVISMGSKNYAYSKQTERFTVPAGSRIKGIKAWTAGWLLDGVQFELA	-0.171

Consider the record given below.
Provide one value: measured glycan array binding signal (z-score) of GH98CBM51-1 (Streptococcus pneumoniae) (protein) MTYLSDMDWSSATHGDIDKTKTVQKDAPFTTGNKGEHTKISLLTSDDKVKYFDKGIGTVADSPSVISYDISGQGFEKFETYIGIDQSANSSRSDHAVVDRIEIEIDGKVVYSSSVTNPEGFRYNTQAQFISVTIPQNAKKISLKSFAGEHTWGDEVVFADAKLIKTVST
5.55
